- tgt: Cas9 (His-Cas9) (Streptococcus pyogenes) (UniProt Q99ZW2)
- Sequence (Q99ZW2 whole entry): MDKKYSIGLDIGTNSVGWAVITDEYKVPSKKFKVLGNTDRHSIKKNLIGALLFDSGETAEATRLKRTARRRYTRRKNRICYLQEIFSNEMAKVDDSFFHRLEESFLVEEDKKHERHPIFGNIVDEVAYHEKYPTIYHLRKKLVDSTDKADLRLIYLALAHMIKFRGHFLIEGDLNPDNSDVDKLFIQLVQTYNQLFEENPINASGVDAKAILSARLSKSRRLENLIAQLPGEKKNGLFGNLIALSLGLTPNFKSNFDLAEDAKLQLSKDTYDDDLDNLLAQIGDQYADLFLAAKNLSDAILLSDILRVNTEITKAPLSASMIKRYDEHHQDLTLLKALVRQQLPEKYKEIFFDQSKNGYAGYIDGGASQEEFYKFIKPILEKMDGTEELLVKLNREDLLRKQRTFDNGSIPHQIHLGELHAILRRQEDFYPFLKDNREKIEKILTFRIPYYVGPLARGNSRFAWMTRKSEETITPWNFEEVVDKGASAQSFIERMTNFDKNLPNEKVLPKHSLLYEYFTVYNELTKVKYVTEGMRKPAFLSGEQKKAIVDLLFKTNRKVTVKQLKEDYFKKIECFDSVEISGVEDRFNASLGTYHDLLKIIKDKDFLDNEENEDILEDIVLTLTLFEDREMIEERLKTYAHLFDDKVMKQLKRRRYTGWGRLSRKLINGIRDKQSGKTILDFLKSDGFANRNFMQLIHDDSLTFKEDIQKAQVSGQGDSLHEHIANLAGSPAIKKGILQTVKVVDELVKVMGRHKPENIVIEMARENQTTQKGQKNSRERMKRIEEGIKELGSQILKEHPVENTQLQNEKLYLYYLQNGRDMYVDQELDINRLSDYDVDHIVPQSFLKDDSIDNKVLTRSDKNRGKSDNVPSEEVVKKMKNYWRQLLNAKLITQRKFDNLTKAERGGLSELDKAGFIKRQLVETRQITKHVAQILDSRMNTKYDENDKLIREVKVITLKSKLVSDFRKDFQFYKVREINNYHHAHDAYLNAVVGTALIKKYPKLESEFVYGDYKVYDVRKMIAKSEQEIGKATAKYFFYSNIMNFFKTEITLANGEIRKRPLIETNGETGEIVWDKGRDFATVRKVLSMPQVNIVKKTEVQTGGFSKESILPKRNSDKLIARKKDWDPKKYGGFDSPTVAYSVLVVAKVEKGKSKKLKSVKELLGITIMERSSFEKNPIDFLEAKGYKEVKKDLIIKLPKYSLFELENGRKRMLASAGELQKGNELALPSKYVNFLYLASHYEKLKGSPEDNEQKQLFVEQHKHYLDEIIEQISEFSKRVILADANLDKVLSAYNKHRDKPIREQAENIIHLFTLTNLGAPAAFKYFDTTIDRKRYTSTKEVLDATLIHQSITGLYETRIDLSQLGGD
- procedure-text: SPR
- run-parameters: Cas9 without guide; 20 mM Tris pH 8.0, 150 mM NaCl, 1 mM MgCl2
measured-parameter: pKd
One number for each entry, as −log10 of the molar value.

Query block: Could you share what pKd was measured for GAGGCTCTCACATCGGTAACGGTGTGAGAGCCTC [Tetra] , tested on Cas9 (His-Cas9) (Streptococcus pyogenes) (UniProt Q99ZW2)?
Result block: 5.06

Origin of values: patent US20200255836
